Give Kon for every item shown.
- test target: T1, hAng2 (Homo sapiens, UniProt O15123)
- T1 sequence (O15123 19-496): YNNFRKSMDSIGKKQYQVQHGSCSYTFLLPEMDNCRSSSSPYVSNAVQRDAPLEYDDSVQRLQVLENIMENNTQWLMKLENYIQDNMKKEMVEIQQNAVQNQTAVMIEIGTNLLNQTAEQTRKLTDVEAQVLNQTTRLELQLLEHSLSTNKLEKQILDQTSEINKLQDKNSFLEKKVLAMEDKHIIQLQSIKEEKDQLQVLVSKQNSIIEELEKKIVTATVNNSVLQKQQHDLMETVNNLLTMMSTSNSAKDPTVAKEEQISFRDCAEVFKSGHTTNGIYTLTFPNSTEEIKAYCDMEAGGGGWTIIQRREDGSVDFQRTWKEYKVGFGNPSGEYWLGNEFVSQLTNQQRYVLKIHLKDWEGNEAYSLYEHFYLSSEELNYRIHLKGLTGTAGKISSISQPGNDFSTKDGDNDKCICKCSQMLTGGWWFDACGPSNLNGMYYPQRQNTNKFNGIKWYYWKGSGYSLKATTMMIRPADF
- experiment summary: OCTET affinity of humanized anti-Ang2 antibodies against hAng2
- Format: binding
- recorded conditions: OCTET, antibody fixed on AR2G biosensor, hAng2 50-0 nM, 1:1 binding model
Numeric only. Scale: M⁻¹ s⁻¹

Consider the molecule 2C8H31: humanized anti-Ang2 antibody from mouse 2C8; VH SEQ ID NO: 63, VL SEQ ID NO: 64 (antibody, V domains shown, VH; VL) VH: QVQLVQSGAEVKKPGASVKVSCKASGYSFTSYWMHWVRQAPGQGLEWIGMIDPSDSETRLNQKFKDKASMTRDTSTSTVYMELSSLRSEDTAVYYCARRFYYGSDWYFDVWGQGTLVTVSS VL: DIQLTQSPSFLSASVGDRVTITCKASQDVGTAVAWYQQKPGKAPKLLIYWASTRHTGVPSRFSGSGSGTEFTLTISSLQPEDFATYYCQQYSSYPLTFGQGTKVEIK . State its measured Kon. 83200

Consider the molecule 2C8H43: humanized anti-Ang2 antibody from mouse 2C8; VH SEQ ID NO: 107, VL SEQ ID NO: 108 (antibody, V domains shown, VH; VL) VH: QVQLVQSGAEVKKPGASVKVSCKASGYSFTSYWMHWVKQAPGQGLEWIGMIDPSDSETRLNQKFKDKASMTRDTSTSTVYMELSSLRSEDTAVYYCARRFYYGSDWYFDVWGQGTLVTVSS VL: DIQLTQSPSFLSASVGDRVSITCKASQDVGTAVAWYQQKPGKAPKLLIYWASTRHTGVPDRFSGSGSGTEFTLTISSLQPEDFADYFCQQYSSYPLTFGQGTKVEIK . State its measured Kon. 71100

Consider the molecule 2C8H53: humanized anti-Ang2 antibody from mouse 2C8; VH SEQ ID NO: 111, VL SEQ ID NO: 112 (antibody, V domains shown, VH; VL) VH: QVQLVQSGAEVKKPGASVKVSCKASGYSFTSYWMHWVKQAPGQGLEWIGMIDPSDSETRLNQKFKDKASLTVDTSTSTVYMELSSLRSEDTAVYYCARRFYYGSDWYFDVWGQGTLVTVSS VL: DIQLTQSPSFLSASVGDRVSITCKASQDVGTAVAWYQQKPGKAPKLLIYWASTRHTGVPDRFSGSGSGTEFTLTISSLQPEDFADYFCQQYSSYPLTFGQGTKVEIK . State its measured Kon. 80900
